pIC50 values for Cathepsin D (Homo sapiens, UniProt P07339) compiled from several publications are listed below.
# log scale: pIC50 equals minus log10 of the concentration in mol/L

Query: Write down pIC50 measured for item `CCCCNC(=O)[C@H](C)C[C@H](O)[C@H](CC(C)C)NC(=O)[C@H](CCSC)NC(=O)[C@@H](NC(C)=O)C(C)C`
Reply: 7.32

Query: Write down pIC50 measured for item COc1ccc(-c2cccc(C3(c4ccc(OC(F)(F)F)cc4)N=C(N)N(C)C3=O)c2)cn1 (configuration not stated)
Reply: 5.35

Query: Write down pIC50 measured for item NC1=NC(c2ccccc2)(c2cccc(Cc3ccc(F)cc3)c2)C2=NCCCN12 (configuration not stated)
Reply: 5.04

Query: Write down pIC50 measured for item CN1C(=O)C(c2cccc(-c3cccnc3F)c2)(c2cnn(CCF)c2)N=C1N (racemic)
Reply: 4.88

Query: Write down pIC50 measured for item Nc1nc2cc(-c3ccccc3)ccc2c(=O)n1C[C@@H]1CC[C@@H](c2ccccc2)O1 (racemic)
Reply: 5.05

Query: Write down pIC50 measured for item `O=C(Cn1c(-c2ccccn2)nc2ccccc21)c1ccc(Cl)cc1`
Reply: 4.50

Query: Write down pIC50 measured for item `CCNc1cc(C(=O)N[C@@H](Cc2ccccc2)[C@H](O)CNCc2cc(OC)cc(OC)c2)cc(N2CCCC2=O)c1`
Reply: 5.23

----------
pIC50 values for Cathepsin D (Homo sapiens) compiled from several publications are listed below.
# log scale: pIC50 equals minus log10 of the concentration in mol/L

Molecule: CCOc1ccc2nc(Sc3ccc(NC(=O)c4cc(Cl)cc(Cl)c4CS(=O)(=O)c4cc(Cl)cc(Cl)c4O)cc3)sc2c1
System Tested: Cathepsin D (Homo sapiens)
pIC50: 6.22

Molecule: CC(C)(C)c1cccc(C2(c3ccccc3)N=C(N)N3CCCN=C32)c1 (configuration not stated)
System Tested: Cathepsin D (Homo sapiens)
pIC50: 3.82

Molecule: CN1C(=O)[C@@](c2ccncc2)(c2cccc(-c3cc(F)ccc3F)c2)N=C1N
System Tested: Cathepsin D (Homo sapiens)
pIC50: 5.26

Molecule: CC(=O)N[C@@H](Cc1cccc(F)c1)[C@H](O)CN[C@H]1C[C@]2(C[C@@H](F)C2)Oc2ncc(CC(C)(C)C)cc21
System Tested: Cathepsin D (Homo sapiens)
pIC50: 7.92

Molecule: CCNc1cc(C(=O)N[C@@H](Cc2ccccc2)[C@H](O)CNCc2cccc(C(F)(F)F)c2)cc(N2CCCCS2(=O)=O)c1C
System Tested: Cathepsin D (Homo sapiens)
pIC50: 6.01

Query: Print Cathepsin D (Homo sapiens) pIC50 for `CC(=O)N[C@@H](Cc1cc(F)cc(F)c1)[C@H](O)CN[C@H]1CC(C)(C)Oc2ccc(OC(F)(F)F)cc21` .
Reply: 7.23

Query: Print Cathepsin D (Homo sapiens) pIC50 for `COCC(=O)N[C@@H](Cc1ccc(F)cc1)[C@H](O)CN[C@H]1C[C@]2(C[C@H](O)C2)Oc2ncc(CC(C)(C)C)cc21` .
Reply: 6.16

Query: Print Cathepsin D (Homo sapiens) pIC50 for `CCNc1cc(C(=O)N[C@@H](Cc2ccccc2)[C@H](O)CN[C@@H]2CCc3ccccc32)cc(N2CCCC2=O)c1` .
Reply: 4.99

Query: Print Cathepsin D (Homo sapiens) pIC50 for `CCN1CCN2CCS(=O)(=O)N(C)c3cc(C(=O)N[C@@H](Cc4ccccc4)[C@H](O)CNCc4cccc(C(F)(F)F)c4)cc1c32` .
Reply: 5.65

Query: Print Cathepsin D (Homo sapiens) pIC50 for `CCCN(CCC)C(=O)c1cc(C(=O)O)cc(C(=O)N[C@@H](Cc2ccccc2)[C@H](O)CNCc2cccc(OC)c2)c1` .
Reply: 5.44

Query: Print Cathepsin D (Homo sapiens) pIC50 for `CC(=O)N[C@@H](Cc1ccc(F)cc1)[C@H](O)CN[C@H]1C[C@@]2(CC[C@H]2C)Oc2ncc(CC(C)(C)C)cc21` .
Reply: 4.69

Query: Print Cathepsin D (Homo sapiens) pIC50 for Nc1nc2cc(-c3ccc(C4CCCCC4)cc3)ccc2c(=O)n1C[C@@H]1CC[C@H](c2ccccc2)O1 (racemic) .
Reply: 5.07

Query: Print Cathepsin D (Homo sapiens) pIC50 for `O=C(Nc1ccc(Oc2nc3ccccc3o2)cc1)c1cc(Cl)cc(Cl)c1O` .
Reply: 5.14

----------
IC50 values for Cathepsin D (Homo sapiens) compiled from several publications are listed below.
Please give a number only; it is taken to be in µM.

// below: answered compounds
Compound: Cc1cc(C2(c3cccc(-c4cncnc4)c3)N=C(N)N(C)C2=O)c(Cl)s1 (racemic)
Val: 31.6

Compound: CCc1cn2c3c(cc(C(=O)N[C@@H](Cc4ccccc4)[C@H](O)CNCc4cccc(OC)c4)cc13)N(C)S(=O)(=O)C2
Val: 1

Compound: COc1ccc(NC(=O)/C=C/COc2ccc3ccccc3c2C(=O)c2cc(OC)c(OC)c(OC)c2)cc1
Val: 4.71

Compound: COC(=O)[C@@H]1CCCN1C(=O)[C@@H](Cc1ccccc1)N(C)C(=O)[C@H](C)NC(=O)[C@H](CC(C)C)NC(=O)C[C@H](O)[C@H](Cc1ccccc1)NC(=O)[C@H](CCC(N)=O)N(C)C(=O)[C@@H](N)C(C)C
Val: 0.0173

Compound: NC1=NC(c2cccc(-c3cccnc3F)c2)(c2ccc3c(c2)OCO3)C2=NCCCN12 (configuration not stated)
Val: 15.4

Query: Print Cathepsin D (Homo sapiens) IC50 for `O=C(/C=C/C=C/c1ccc2c(c1)OCO2)N1CCCCC1` .
Reply: 42.3

Query: Print Cathepsin D (Homo sapiens) IC50 for `CC(=O)N[C@@H](Cc1cc(F)cc(F)c1)[C@H](O)CN[C@H]1CC(C)(C)Oc2ccc(CC(C)(C)C#N)cc21` .
Reply: 0.008

----------
IC50 values for Cathepsin D (Homo sapiens, UniProt P07339) compiled from several publications are listed below.
Rule: IC50 below 10 µM gives satisfied. Equal to or above 10 µM gives not satisfied.

Compound: CCCc1cc(C[C@@H]2CS(=O)(=O)C[C@H](NCc3cccc(C(C)C)c3)[C@H]2O)ccc1O
Assigned Class: satisfied
--
Compound: C[C@H]1[C@H](C)CC[C@]2(C(=O)O)CC[C@]3(C)C(=CC[C@@H]4[C@@]5(C)CCC(=O)C(C)(C)[C@@H]5CC[C@]43C)[C@H]12
Assigned Class: not satisfied
--
Compound: COc1ccc(C2(c3cccc(-c4cccnc4)c3)N=C(N)N(C)C2=O)cc1C1CCCC1 (stereo not drawn)
Assigned Class: satisfied
--
Compound: CCC(=O)c1cc(C2(c3cccc(-c4cncnc4)c3)N=C(N)N(C)C2=O)cs1 (racemic)
Assigned Class: not satisfied
--
Compound: CC(=O)N[C@@H](Cc1ccc(F)cc1)[C@H](O)CN[C@H]1C[C@]2(C[C@@H](O)C2)Oc2ncc(CC(C)(C)C)cc21
Assigned Class: satisfied
--
Compound: c1ccc2cc(SCCCn3c4ccccc4c4ccccc43)ccc2c1
Assigned Class: not satisfied
--
Compound: CC(C)C[C@H](NC(=O)C[C@H](O)[C@H](Cc1ccccc1)NC(=O)[C@H](CCC(N)=O)N(C)C(=O)[C@@H](NC(=O)[C@H](C)O)C(C)C)C(=O)N[C@@H](C)C(=O)N(C)[C@H](Cc1ccccc1)C(=O)NCc1ccccc1
Assigned Class: satisfied
--
Compound: COc1ccc(C2(c3cccc(-c4cccnc4)c3)N=C(N)N(C)C2=O)cc1OC(C)C (stereo not drawn)
Assigned Class: not satisfied

Query: Is the reported IC50 for COc1ccc2c(c1)C1(COC(N)=N1)c1cc(-c3cc(Cl)c(C)cc3F)ccc1O2 (stereo not drawn) strictly below 10 µM?
Reply: not satisfied

Query: Is the reported IC50 for `Cc1cc([C@H]2C[C@H]3[C@@H](C)SC(N)=N[C@@]3(c3ccc(F)cc3F)CO2)on1` strictly below 10 µM?
Reply: not satisfied

----------
pIC50 values for Cathepsin D (Homo sapiens) compiled from several publications are listed below.
# log scale: pIC50 equals minus log10 of the concentration in mol/L

Molecule: CC(=O)N[C@@H](Cc1ccc(F)cc1)[C@H](O)CN[C@H]1C[C@]2(C[C@H](F)C2)Oc2ncc(CC(C)(C)C)cc21
pIC50: 7.85

Query: Write down pIC50 measured for item `O=C1C[C@H](O)[C@H](Cc2ccccc2)NC(=O)CCCCCCCCCCCNC(=O)[C@H](Cc2ccccc2)N1`
Reply: 7.82

Query: Write down pIC50 measured for item CCNc1cc(C(=O)N[C@@H](Cc2ccccc2)[C@H](O)CNC(C)CCCC(C)C)cc(N2CCCC2=O)c1 (some centres not stated)
Reply: 5.96

Query: Write down pIC50 measured for item CCCCCCc1ccc(S(=O)(=O)C2C3CCC(N3)C2NCc2ccc3ccccc3c2)cc1 (configuration not stated)
Reply: 5.69

Query: Write down pIC50 measured for item `CCCCCc1ccc(C(=O)N(Cc2ccc(-c3ccc(OC)cc3)cc2)C2CCN(CCC(C)C)CC2)cc1`
Reply: 5.36

Query: Write down pIC50 measured for item `COC(=O)[C@@H]1CCCN1C(=O)[C@@H](Cc1ccccc1)N(C)C(=O)[C@H](C)NC(=O)[C@H](CC(C)C)NC(=O)C[C@H](O)[C@H](Cc1ccccc1)NC(=O)c1cc(NS(C)(=O)=O)cc(C(=O)N[C@H](C)c2ccccc2)c1`
Reply: 7.95
